These entries and their values trace back to patent US20200079855A1.

Target: recombinant human αvβ8 integrin (human) (UniProt P06756)
Sequence (P06756 31-992 limits assumed, form in doubt, chain 1 of 2): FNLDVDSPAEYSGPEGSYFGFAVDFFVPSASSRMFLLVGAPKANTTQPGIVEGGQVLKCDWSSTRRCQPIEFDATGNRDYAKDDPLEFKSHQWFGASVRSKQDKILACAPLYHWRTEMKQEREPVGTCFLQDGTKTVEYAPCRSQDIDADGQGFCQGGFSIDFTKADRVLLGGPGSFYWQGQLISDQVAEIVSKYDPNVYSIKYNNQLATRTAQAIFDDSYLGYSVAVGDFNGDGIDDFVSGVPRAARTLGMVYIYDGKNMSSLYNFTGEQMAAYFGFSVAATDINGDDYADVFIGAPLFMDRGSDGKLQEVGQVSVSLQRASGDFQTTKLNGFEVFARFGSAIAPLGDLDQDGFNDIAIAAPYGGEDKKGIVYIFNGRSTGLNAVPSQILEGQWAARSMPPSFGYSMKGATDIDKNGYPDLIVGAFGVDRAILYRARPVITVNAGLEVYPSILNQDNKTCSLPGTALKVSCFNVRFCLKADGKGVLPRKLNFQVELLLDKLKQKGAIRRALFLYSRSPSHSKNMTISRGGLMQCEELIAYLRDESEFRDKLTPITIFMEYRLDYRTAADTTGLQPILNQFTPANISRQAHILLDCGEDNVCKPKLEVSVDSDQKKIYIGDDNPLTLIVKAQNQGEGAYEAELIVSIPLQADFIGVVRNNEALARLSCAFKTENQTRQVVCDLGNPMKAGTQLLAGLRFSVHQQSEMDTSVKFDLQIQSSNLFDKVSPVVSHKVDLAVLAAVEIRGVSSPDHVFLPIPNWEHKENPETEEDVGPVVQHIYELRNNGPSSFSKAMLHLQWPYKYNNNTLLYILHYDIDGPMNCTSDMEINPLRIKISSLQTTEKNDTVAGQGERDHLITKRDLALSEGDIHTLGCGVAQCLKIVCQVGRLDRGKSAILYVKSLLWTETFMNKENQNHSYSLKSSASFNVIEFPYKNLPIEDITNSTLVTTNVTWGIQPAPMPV
Sequence (chain, as listed by the source limits assumed, form in doubt, chain 2 of 2): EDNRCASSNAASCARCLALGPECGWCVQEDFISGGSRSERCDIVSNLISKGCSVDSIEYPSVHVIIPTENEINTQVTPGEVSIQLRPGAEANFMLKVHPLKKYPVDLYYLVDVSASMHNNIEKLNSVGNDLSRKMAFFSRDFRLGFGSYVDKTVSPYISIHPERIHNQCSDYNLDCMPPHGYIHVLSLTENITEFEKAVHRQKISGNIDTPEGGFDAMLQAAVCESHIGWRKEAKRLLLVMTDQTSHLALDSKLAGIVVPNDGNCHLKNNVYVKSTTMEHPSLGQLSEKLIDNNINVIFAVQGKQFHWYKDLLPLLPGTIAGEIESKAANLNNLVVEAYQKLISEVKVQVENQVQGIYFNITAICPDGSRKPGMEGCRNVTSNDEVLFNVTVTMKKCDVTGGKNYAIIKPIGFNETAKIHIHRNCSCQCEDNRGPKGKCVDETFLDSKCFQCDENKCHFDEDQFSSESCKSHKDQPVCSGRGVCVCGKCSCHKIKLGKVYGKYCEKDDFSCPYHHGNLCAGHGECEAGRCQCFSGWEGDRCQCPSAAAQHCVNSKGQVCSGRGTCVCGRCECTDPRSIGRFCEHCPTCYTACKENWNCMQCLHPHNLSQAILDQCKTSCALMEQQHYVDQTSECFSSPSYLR
Assay: ELISA (DELFIA counts) on human αvβ8, Fab titration
measured-attribute: EC50 (read off the curve) (nM)
Answer format: numeric, nM implied, no suffix.

Example results:
| binder | EC50 (read off the curve), nM |
| --- | --- |
| ADWA11 VH05/VK01 Fab with K63A in VH (Fab, V domains shown) VH: EVQLVESGGGLVQPGGSLRLSCAASGFNIKDYYMNWVRQAPGKGLEWVGWIDPDNGNTIYDPAFQGRFTISADTSKNSAYLQMNSLRAEDTAVYYCARRLLMDYWGQGTLVTVSS VL: DIQMTQSPSSLSASVGDRVTITCRSTKSLLHFNGNTYLFWYQQKPGKAPKRLIYYMSNLASGVPSRFSGSGSGTDFTLTISSLQPEDFATYYCMQSLEYPFTFGQGTKVEIK | 1 |
| ADWA11 VH05/VK01 Fab with N57Q in VH (Fab, V domains shown) VH: EVQLVESGGGLVQPGGSLRLSCAASGFNIKDYYMNWVRQAPGKGLEWVGWIDPDNGQTIYDPKFQGRFTISADTSKNSAYLQMNSLRAEDTAVYYCARRLLMDYWGQGTLVTVSS VL: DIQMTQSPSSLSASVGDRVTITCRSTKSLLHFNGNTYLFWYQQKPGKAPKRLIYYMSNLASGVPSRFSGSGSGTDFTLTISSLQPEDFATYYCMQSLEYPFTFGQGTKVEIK | 1 |

As a next step, examine the binder that follows.
Challenge: Return EC50 (read off the curve) for the following binder: ADWA11 VH05/VK01 Fab with N55Q in VH (Fab, V domains shown) VH: EVQLVESGGGLVQPGGSLRLSCAASGFNIKDYYMNWVRQAPGKGLEWVGWIDPDQGNTIYDPKFQGRFTISADTSKNSAYLQMNSLRAEDTAVYYCARRLLMDYWGQGTLVTVSS VL: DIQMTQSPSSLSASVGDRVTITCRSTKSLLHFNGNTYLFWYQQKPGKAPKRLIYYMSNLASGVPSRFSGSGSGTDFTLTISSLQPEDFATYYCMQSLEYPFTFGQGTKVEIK
Response given: 1
